- SYSTEM: Indolethylamine N-methyltransferase (Oryctolagus cuniculus, UniProt O97972)
- Sequence (O97972 whole entry): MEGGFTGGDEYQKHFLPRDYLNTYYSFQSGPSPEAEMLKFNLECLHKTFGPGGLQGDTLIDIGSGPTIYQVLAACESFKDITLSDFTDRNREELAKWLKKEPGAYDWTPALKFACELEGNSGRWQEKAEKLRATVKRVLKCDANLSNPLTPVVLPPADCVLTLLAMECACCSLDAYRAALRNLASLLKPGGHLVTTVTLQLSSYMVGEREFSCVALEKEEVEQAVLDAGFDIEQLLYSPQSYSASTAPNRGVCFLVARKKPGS
- PROTOCOL TEXT: Inhibition of New Zealand white rabbit lung INMT using N-methyltryptamine as substrate after 60 to 90 mins by liquid scintillation counting in presence of S-methyl-[14C]adenosylmethionine
MEASURED QUANTITY: IC50

INSERT INTO results (smiles_entry, observed) VALUES
  ('c1ccc2c(c1)CN1CCN=C21', '> 330 µM'),
  ('N=c1ccccn1CC(F)(F)F', '> 9.7 µM'),
  ('CN1CCC/C1=N\C1CC1', '> 10.3 µM'),
  ('Cn1cc(C(F)(F)F)sc1=N', '> 88.6 µM'),
  ('CN1CCC/C1=N\CC(F)(F)F', '> 92.6 µM');

Reference for the values: ChEMBL document CHEMBL3228033
